This collection of values is drawn from patent US20020169175A1.

- procedureDetails: Single dose oral pharmacokinetic studies in male Wistar rats
- Type: in vivo, rat
- appliedConditions: fasted, suspension in 0.25% sodium CMC
Reported AUC (0-∞) values for a set of compounds
Numeric only. Scale: ng·h/mL

Known results for compounds:
compound	AUC (0-∞) [ng·h/mL]
CCO[C@@H](Cc1ccc(OCCn2c(CC)nc3ccccc3c2=O)cc1)C(=O)O [Example 10]	74070
CCCc1nn(C)c2c(=O)n(CCOc3ccc(CC(OCC)C(=O)[O-])cc3)c(CC)nc12.CCCc1nn(C)c2c(=O)n(CCOc3ccc(CC(OCC)C(=O)[O-])cc3)c(CC)nc12.[Mg+2] (single isomer, unassigned; (-))	65930
CCCc1nn(C)c2c(=O)n(CCOc3ccc(C[C@H](OCC)C(=O)O)cc3)c(CC)nc12	101290

Now examine the next entry.
Fill in the blank: the reported AUC (0-∞) of CCO[C@@H](Cc1ccc(OCCn2c(CC)nc3ccccc3c2=O)cc1)C(=O)O [Example 7] is ____.
51430

###

- procedureDetails: Single dose oral pharmacokinetic studies in male Wistar rats
- Format: in vivo, rat
- appliedConditions: male, Wistar, rat, plasma, po, 30 mg/kg, fasted, suspension in 0.25% sodium CMC, read-out: t½ (converted)
property: half-life (h)
Field format: number, assumed h, no unit text.

See these solved cases before continuing.
itemSmiles	property	measValue
CCO[C@@H](Cc1ccc(OCCn2c(CC)nc(-c3ccccc3)cc2=O)cc1)C(=O)O	half-life	2.18
CCCc1nn(C)c2c(=O)n(CCOc3ccc(C[C@H](OCC)C(=O)O)cc3)c(CC)nc12	half-life	1.2
CCO[C@@H](Cc1ccc(OCCn2c(CC)nc(-c3ccccc3)cc2=O)cc1)C(=O)[O-].[K+]	half-life	2.19

What does the record list as half-life for CCO[C@@H](Cc1ccc(OCCn2c(CC)nc3ccccc3c2=O)cc1)C(=O)O ?
1.97

Input CCO[C@@H](Cc1ccc(OCCn2c(CC)nc(-c3ccccc3)cc2=O)cc1)C(=O)[O-].[Na+]
2.07

###

- Test system: Swiss albino mice
- procedureDetails: Plasma triglyceride and total cholesterol lowering activity in Swiss albino mice and Guinea pigs
- Format: in vivo, mouse
- appliedConditions: dose 3 mg/kg, oral, 6 days
property: Triglyceride Lowering (%)
Write it as a number; the unit % goes unstated.

compound	property	measValue
CCCc1nn(C)c2c(=O)n(CCOc3ccc(C[C@H](OCC)C(=O)O)cc3)c(CC)nc12 [Example 45]	Triglyceride Lowering (%)	81
CCO[C@@H](Cc1ccc(OCCn2c(CC)nc3ccccc3c2=O)cc1)C(=O)O [Example 3]	Triglyceride Lowering (%)	81

Suppose we examine the compound CCCc1nn(C)c2c(=O)n(CCOc3ccc(C[C@H](OCC)C(=O)O)cc3)c(CC)nc12 [Example 44] ; what Triglyceride Lowering (%) value has been reported?
80

And the next one, CCCc1nn(C)c2c(=O)n(CCOc3ccc(CC(OCC)C(=O)[O-])cc3)c(CC)nc12.CCCc1nn(C)c2c(=O)n(CCOc3ccc(CC(OCC)C(=O)[O-])cc3)c(CC)nc12.[Mg+2] (single isomer, unassigned; (-)) ?
84

What do you get for CCO[C@@H](Cc1ccc(OCCn2c(CC)nc3ccccc3c2=O)cc1)C(=O)O [Example 1] ?
87

###

- procedureDetails: Single dose oral pharmacokinetic studies in male Wistar rats
- Type: in vivo, rat
- appliedConditions: fasted, suspension in 0.25% sodium CMC
property: Kel (h⁻¹)
State the answer as a number, implicitly in h⁻¹.

Solved cases (4 shown):
compound	outputUnit	Kel
CCCc1nn(C)c2c(=O)n(CCOc3ccc(CC(OCC)C(=O)[O-])cc3)c(CC)nc12.CCCc1nn(C)c2c(=O)n(CCOc3ccc(CC(OCC)C(=O)[O-])cc3)c(CC)nc12.[Mg+2] (single isomer, unassigned; (-))	h⁻¹	0.34
CCO[C@@H](Cc1ccc(OCCn2c(CC)nc3ccccc3c2=O)cc1)C(=O)O [Example 10]	h⁻¹	0.34
CCO[C@@H](Cc1ccc(OCCn2c(CC)nc3ccccc3c2=O)cc1)C(=O)O [Example 4]	h⁻¹	0.31
CCCc1nn(C)c2c(=O)n(CCOc3ccc(C[C@H](OCC)C(=O)O)cc3)c(CC)nc12 [Example 40]	h⁻¹	0.60

Fill in the blank: the reported Kel of CCCc1nn(C)c2c(=O)n(CCOc3ccc(C[C@H](OCC)C(=O)O)cc3)c(CC)nc12 [Example 45] is ____.
0.42

Now try CCO[C@@H](Cc1ccc(OCCn2c(CC)nc(-c3ccccc3)cc2=O)cc1)C(=O)[O-].[Na+] .
0.34

Also need CCO[C@@H](Cc1ccc(OCCn2c(CC)nc(-c3ccccc3)cc2=O)cc1)C(=O)[O-].[K+] , thanks.
0.32

Please answer likewise for CCO[C@@H](Cc1ccc(OCCn2c(CC)nc(-c3ccccc3)cc2=O)cc1)C(=O)O
0.29

Thanks! And CCO[C@@H](Cc1ccc(OCCn2c(CC)nc3ccccc3c2=O)cc1)C(=O)O [Example 7] ?
0.38
